All figures here come from PubChem BioAssay AID330.

system: P388 leukemia ip, CD2F1 mice, survival T/C; experiment: NCI In Vivo Anticancer Drug Screen. Data for tumor model P388 Leukemia (intraperitoneal) in CD2F1 (CDF1) mice; conditions: endpoint: median survival time; dose: 400.0 mg/kg/injection; schedule: Q04DX002 (ip); vehicle: saline with Tween-80; higher = longer survival
Inconclusive results and toxic doses are left out.
# T/C annotations

Example results:
Compound: CC1=C(c2ccccc2)CS1(=O)=O
Experimental result: 110 % of control
--
Compound: CCN(CC)C(=O)N1CCN(C(=O)c2cc(Nc3ccnc4cc(Cl)ccc34)ccc2O)CC1
Experimental result: 89 % of control
--
Compound: O=c1c(N=Nc2ccccc2Cl)c(O)n(-c2ccc(Cl)cc2)c(=S)n1-c1ccc(Br)cc1
Experimental result: 112 % of control
--
Compound: CCCCOC(=O)c1ccc2nc(NC(=O)OC)[nH]c2c1
Experimental result: 91 % of control
--
Compound: CC(C)C(O)Cc1cc(=O)[nH]c2ccccc12 (stereo not drawn)
Experimental result: 86 % of control

input: // map CC(C)(C)N=C(NC#N)Nc1cccnc1Cl to recorded T/C (system: P388 leukemia ip, CD2F1 mice, survival T/C)
output: 92 % of control

input: // map Cc1nnc(NC(=O)c2cc(=O)c3ccccc3o2)s1 to recorded T/C (system: P388 leukemia ip, CD2F1 mice, survival T/C)
output: 93 % of control

input: // map NC(CSCNc1ncnc2c1ncn2C1OC(CO)C(O)C1O)C(=O)O (stereo not drawn) to recorded T/C (system: P388 leukemia ip, CD2F1 mice, survival T/C)
output: 102 % of control
